- EXPERIMENTAL_SYSTEM: Voltage-gated inwardly rectifying potassium channel KCNH2 (Homo sapiens, UniProt Q12809); further: assay procedure not described here
- Sequence (Q12809 whole entry): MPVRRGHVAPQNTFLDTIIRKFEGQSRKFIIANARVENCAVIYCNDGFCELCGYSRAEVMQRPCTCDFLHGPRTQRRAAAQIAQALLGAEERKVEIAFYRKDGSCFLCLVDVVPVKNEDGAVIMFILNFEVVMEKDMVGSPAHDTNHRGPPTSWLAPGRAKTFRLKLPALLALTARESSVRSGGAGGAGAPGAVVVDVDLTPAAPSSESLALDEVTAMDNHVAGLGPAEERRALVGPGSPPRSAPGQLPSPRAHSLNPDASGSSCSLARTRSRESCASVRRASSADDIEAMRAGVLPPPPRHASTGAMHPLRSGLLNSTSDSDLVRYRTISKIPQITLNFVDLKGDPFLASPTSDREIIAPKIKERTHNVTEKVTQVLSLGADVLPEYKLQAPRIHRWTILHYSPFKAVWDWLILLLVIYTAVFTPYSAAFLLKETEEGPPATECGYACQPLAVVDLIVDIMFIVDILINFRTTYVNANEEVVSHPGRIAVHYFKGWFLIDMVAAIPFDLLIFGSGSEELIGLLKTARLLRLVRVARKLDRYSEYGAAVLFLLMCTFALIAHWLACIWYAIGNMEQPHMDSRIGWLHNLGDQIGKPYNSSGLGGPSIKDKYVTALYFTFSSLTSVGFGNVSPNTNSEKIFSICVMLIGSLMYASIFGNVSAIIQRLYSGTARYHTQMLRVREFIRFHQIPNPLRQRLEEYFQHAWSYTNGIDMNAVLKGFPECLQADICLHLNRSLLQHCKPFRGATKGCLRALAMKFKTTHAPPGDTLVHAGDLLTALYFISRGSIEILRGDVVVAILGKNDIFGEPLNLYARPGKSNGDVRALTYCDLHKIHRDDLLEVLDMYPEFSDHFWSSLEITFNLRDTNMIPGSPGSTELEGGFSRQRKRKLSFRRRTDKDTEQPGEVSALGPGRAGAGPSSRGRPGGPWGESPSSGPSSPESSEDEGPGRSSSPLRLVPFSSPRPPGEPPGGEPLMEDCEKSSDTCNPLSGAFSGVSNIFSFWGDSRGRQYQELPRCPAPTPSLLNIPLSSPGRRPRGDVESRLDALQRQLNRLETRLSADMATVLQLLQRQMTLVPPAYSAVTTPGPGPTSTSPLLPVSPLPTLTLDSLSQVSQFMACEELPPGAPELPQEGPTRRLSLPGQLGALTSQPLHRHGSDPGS
- Type: functional
- SETUP_CONDITIONS: read-out: AC50; further: assay procedure not described here
Give AC50 for every item shown.

AC50 reading for Cc1ccc(S(=O)(=O)NC(=O)N[C@H]2[C@H]3CC[C@@](C)([C@H]2O)C3(C)C)cc1 [GLIBORNURIDE] : > 30 µM

The molecule CC[N+](CC)(CCNC(=O)C(=O)NCC[N+](CC)(CC)Cc1ccccc1Cl)Cc1ccccc1Cl [AMBENONIUM] showed AC50 equal to 7.8 µM

AC50 reported for this molecule CC1(C)O[C@@H]2C[C@H]3[C@@H]4CCC5=CC(=O)C=C[C@]5(C)[C@@]4(F)[C@@H](O)C[C@]3(C)[C@]2(C(=O)CO)O1 [TRIAMCINOLONE ACETONIDE] : > 30 µM

// recorded AC50 for Cc1cc(C)cc(OCC2CNC(=O)O2)c1 (centres undefined) [METAXALONE] : > 30 µM

AC50 recorded for this molecule, CCCCOC(=O)c1ccc(N)cc1 [BUTAMBEN] , is > 30 µM

The molecule listed as CN1CCCN=C1/C=C/c1cccc(O)c1 [OXANTEL] has a reported AC50 of 6.2 µM

Documented AC50 of CC(=O)OCC(=O)[C@@]1(O)CC[C@H]2[C@@H]3CCC4=CC(=O)CC[C@]4(C)[C@@]3(F)[C@@H](O)C[C@@]21C [FLUDROCORTISONE ACETATE] : > 30 µM

Lab note: measured AC50 of CCOC(=O)C1=C(C)NC(C)=C(C(=O)OC)C1c1cccc(Cl)c1Cl (centres undefined) [FELODIPINE] was > 30 µM

Lab note: CS(=O)(=O)Nc1ccc([N+](=O)[O-])cc1Oc1ccccc1 [NIMESULIDE] gave AC50 of > 30 µM

###

Please provide measured AC50 for the entries that follow.

Test item Cc1nnc2n1-c1ccc(Cl)cc1C(c1ccccc1)=NC2 ; UniProtKB Q9Y5N1; reported AC50 was > 10 µM

Field AC50 (system: UniProtKB Q9Y5N1) for entry CC(=O)NC[C@H]1CN(c2ccc(N3CCOCC3)c(F)c2)C(=O)O1 = > 30 µM

The value of AC50 recorded for CCc1ccc(C(=O)C(C)CN2CCCCC2)cc1 (stereo not drawn) when tested on UniProtKB Q9Y5N1 reads 1.3 µM

Here CCCCC[C@H](O)CC[C@@H]1[C@H]2Cc3cccc(OCC(=O)O)c3C[C@H]2C[C@H]1O was tested on UniProtKB Q9Y5N1, and its AC50 came to > 30 µM

The reported UniProtKB Q9Y5N1 AC50 of c1cnc2cc3c(cc2n1)[C@@H]1CNC[C@H]3C1 is > 30 µM

Record Cc1ccc(S(=O)(=O)NC(=O)N[C@H]2[C@H]3CC[C@@](C)([C@H]2O)C3(C)C)cc1 [GLIBORNURIDE] has UniProtKB Q9Y5N1 AC50 equal to > 30 µM

Entry Nc1nc(Cl)nc2c1ncn2[C@@H]1O[C@H](CO)[C@@H](O)[C@@H]1F : AC50 on UniProtKB Q9Y5N1 = > 30 µM

Given the compound COc1cc2c(cc1OC)C1CC(=O)C(CC(C)C)CN1CC2 (stereo not drawn) and test system UniProtKB Q9Y5N1, the measured AC50 is > 30 µM

For Cc1ccc(-c2ncc(Cl)cc2-c2ccc(S(C)(=O)=O)cc2)cn1 on UniProtKB Q9Y5N1, measured AC50 was > 10 µM

Entry NCCCNCCSP(=O)(O)O ; assay system UniProtKB Q9Y5N1; AC50 recorded at > 30 µM

Kindly note: UniProtKB Q9Y5N1, CN1CC2c3ccccc3Oc3ccc(Cl)cc3C2C1 (stereo not drawn) , AC50 value reported: > 30 µM

Known value: UniProtKB Q9Y5N1 AC50 of the compound COc1ccc(-n2nc(C(N)=O)c3c2C(=O)N(c2ccc(N4CCCCC4=O)cc2)CC3)cc1 equals > 30 µM

N[C@@H](Cc1cc(I)c(Oc2cc(I)c(O)c(I)c2)c(I)c1)C(=O)O tested on UniProtKB Q9Y5N1 gave AC50: > 30 µM

Case CN(C)[C@@H]1C(O)=C(C(=O)NCN2CCCC2)C(=O)[C@@]2(O)C(O)=C3C(=O)c4c(O)cccc4[C@@](C)(O)[C@H]3C[C@@H]12 , UniProtKB Q9Y5N1, AC50 recorded as > 10 µM

The compound OCC(O)COc1ccc(Cl)cc1 (stereo not drawn) , tested on UniProtKB Q9Y5N1, showed AC50 of > 10 µM

AC50 for UniProtKB Q9Y5N1 with input C[C@]12C=CC(=O)C=C1C(Cl)=C[C@@H]1[C@@H]2[C@@H](O)C[C@@]2(C)[C@H]1CC[C@]2(O)C(=O)CO equals > 30 µM

Hey, UniProtKB Q9Y5N1 data for CC(C)C[C@H](NC(=O)[C@H](Cc1ccccc1)NC(=O)c1cnccn1)B(O)O : AC50 came out at > 30 µM

Form field AC50 for item CCC(NC(C)C)C(O)c1ccc(O)c(O)c1 (stereo not drawn) on UniProtKB Q9Y5N1: > 30 µM

###

What AC50 was measured for each of the following?
- EXPERIMENTAL_SYSTEM: Muscarinic acetylcholine receptor M1 (Homo sapiens); further: assay procedure not described here
- Sequence (P11229 whole entry): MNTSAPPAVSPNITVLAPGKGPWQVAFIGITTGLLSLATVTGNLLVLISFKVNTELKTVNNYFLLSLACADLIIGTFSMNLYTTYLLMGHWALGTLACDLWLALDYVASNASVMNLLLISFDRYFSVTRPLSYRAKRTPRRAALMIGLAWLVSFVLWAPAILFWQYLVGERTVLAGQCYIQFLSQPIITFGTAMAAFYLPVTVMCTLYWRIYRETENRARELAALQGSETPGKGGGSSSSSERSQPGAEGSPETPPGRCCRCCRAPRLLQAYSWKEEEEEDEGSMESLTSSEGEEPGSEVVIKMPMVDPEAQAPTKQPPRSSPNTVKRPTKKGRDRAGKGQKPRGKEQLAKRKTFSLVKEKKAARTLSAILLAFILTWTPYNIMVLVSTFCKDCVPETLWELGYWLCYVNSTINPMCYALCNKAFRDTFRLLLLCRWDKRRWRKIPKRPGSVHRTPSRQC
- Assay type: functional

AC50 in this record for O=C(O[C@H]1C[N+]2(CCCOc3ccccc3)CCC1CC2)C(O)(c1cccs1)c1cccs1 [ACLIDINIUM BROMIDE] : 0.018 µM

For reference, reported AC50 for O=C(O)c1nn(Cc2ccc(Cl)cc2Cl)c2ccccc12 [LONIDAMINE] stands at > 30 µM

The reported AC50 of the compound O=C(O)[C@H]1/C(=C/CO)O[C@@H]2CC(=O)N21 [CLAVULANIC ACID] was > 30 µM

Sample C#CCN(C)Cc1ccccc1 [PARGYLINE] ; AC50 observed: > 30 µM

Sure, the documented AC50 for OCC(CO)N[C@H]1C[C@](O)(CO)[C@@H](O)[C@H](O)[C@H]1O [VOGLIBOSE] is > 30 µM

AC50 in this record for CS(=O)(=O)NC(=O)CCC/C=C\C[C@H]1C(=O)C[C@@H](O)[C@@H]1/C=C/[C@@H](O)COc1ccccc1 [SULPROSTONE] : > 30 µM

Just so you know, measured AC50 for CN1CCCN=C1/C=C/c1cccc(O)c1 [OXANTEL] came out at > 30 µM

In plain terms, C=CC1=C(C(=O)O)N2C(=O)[C@@H](NC(=O)/C(=N\O)c3csc(N)n3)[C@H]2SC1 has a documented AC50 of > 10 µM

Form field AC50, entry c1cnc2cc3c(cc2n1)[C@@H]1CNC[C@H]3C1 [VARENICLINE] : > 30 µM

Per the record, C[C@@H](Cc1ccccc1)N(C)Cc1ccccc1 [BENZPHETAMINE] has AC50 of > 10 µM

The value of AC50 measured for the compound Cc1ccc(S(=O)(=O)NC(=O)N[C@H]2[C@H]3CC[C@@](C)([C@H]2O)C3(C)C)cc1 [GLIBORNURIDE] turned out to be > 30 µM

Sample CC(=O)SCC(Cc1ccccc1)C(=O)NCC(=O)OCc1ccccc1 (stereo not given) [RACECADOTRIL] ; AC50 observed: > 30 µM

The reported value for OCCOCCN1CCN(C(c2ccccc2)c2ccc(Cl)cc2)CC1 (stereo not given) [HYDROXYZINE] in terms of AC50 is > 10 µM

For CC(C)(CO)c1cc2cc(NC(=O)C3(c4ccc5c(c4)OC(F)(F)O5)CC3)c(F)cc2n1C[C@@H](O)CO [TEZACAFTOR] the compound record lists AC50 as > 30 µM

AC50 reported for this compound O=C(O)c1ccc2nc(-c3cc(Cl)cc(Cl)c3)oc2c1 : > 30 µM

Consider CC[N+](CC)(CCNC(=O)C(=O)NCC[N+](CC)(CC)Cc1ccccc1Cl)Cc1ccccc1Cl [AMBENONIUM] . Its measured AC50 is 1.6 µM

What the record says about C[C@]12C=CC(=O)C=C1C(Cl)=C[C@@H]1[C@@H]2[C@@H](O)C[C@@]2(C)[C@H]1CC[C@]2(O)C(=O)CO [CLOPREDNOL] : AC50 is > 30 µM

Briefly, AC50 measured for CN(C)CCc1c[nH]c2ccc(CS(=O)(=O)N3CCCC3)cc12 [ALMOTRIPTAN] : > 30 µM

Sample OCC(O)COc1ccc(Cl)cc1 (stereo not given) ; AC50 observed: > 10 µM

Looking up CC1=C(C(=O)O)N2C(=O)[C@@H](NC(=O)[C@H](N)C3=CCC=CC3)[C@H]2SC1 [CEPHRADINE] , I found its AC50 recorded as > 30 µM

Notebook: CCC(=O)c1ccc2c(c1)N(CC(C)N(C)C)c1ccccc1S2 (stereo not given) [PROPIOMAZINE] , AC50 read as 0.12 µM

Given item CCN(CC)CCn1c(=O)c(Cc2ccc(OC)cc2)nc2ccccc21 [CAROVERINE] , the value recorded as its AC50 is > 30 µM

The compound listed as CCN(CC)CCCN(c1ccccc1)C1Cc2ccccc2C1 [APRINDINE] shows AC50 equal to 14.5 µM

For record CCNC(=O)CCC/C=C\C[C@@H]1[C@@H](/C=C/[C@@H](O)CCc2ccccc2)[C@H](O)C[C@@H]1O [BIMATOPROST] the listed AC50 is > 30 µM

// AC50 lookup, compound = CCOc1ccccc1OCCN[C@H](C)Cc1ccc(OC)c(S(N)(=O)=O)c1 [TAMSULOSIN] , result: > 10 µM

# compound CCC[C@@]1(CCc2ccccc2)CC(O)=C([C@H](CC)c2cccc(NS(=O)(=O)c3ccc(C(F)(F)F)cn3)c2)C(=O)O1 ; its AC50 = > 30 µM

Per the record, CCC(=O)O[C@H](CC(=O)O)C[N+](C)(C)C [LEVOCARNITINE PROPIONATE] has AC50 of > 30 µM

The reported value for CCOCC(O)COc1ccc(NC(=O)CC[S+](C)C)cc1 (stereo not given) in terms of AC50 is > 30 µM

The value of AC50 measured for the compound C[C@H](CCC(=O)O)[C@H]1CC[C@H]2[C@@H]3[C@H](O)C[C@@H]4C[C@H](O)CC[C@]4(C)[C@H]3CC[C@]12C [CHENODIOL] turned out to be > 30 µM

// AC50 value for CNC1(C)C2CCC(C2)C1(C)C (stereo not given) [MECAMYLAMINE] : > 10 µM

CCCO[C@H]1[C@@H]([C@@H](COCc2ccc(Cl)cc2)OCc2ccc(Cl)cc2)OC(OCC)[C@@H]1O (stereo not given in full) [CLOBENOSIDE] has a reported AC50 of > 30 µM

Sure, the documented AC50 for COc1ccc(-n2nc(C(N)=O)c3c2C(=O)N(c2ccc(N4CCCCC4=O)cc2)CC3)cc1 [APIXABAN] is > 30 µM

For this compound ( Cc1ccc(O)c([C@H](CCN(C(C)C)C(C)C)c2ccccc2)c1 [TOLTERODINE] ), measured AC50 is 0.0051 µM

Oc1cc(Cl)ccc1Oc1ccc(Cl)cc1Cl [TRICLOSAN] yielded AC50 of > 30 µM

Kindly note the recorded AC50 for CN(C)CCN(Cc1ccccc1)c1ccccn1 [TRIPELENNAMINE] , which is > 10 µM
